biological target: T1, HLA-B*2705 heavy chain with human beta 2 microglobulin on C1R-neo-B*2705 cells (human, UniProt P01889 25-362; P61769 21-119); test: flow cytometry, C1R-neo-HLA-B27 cells, antibody 1 ug/ml
T1 construct: also called C1R-neo-HLA-B27
MFI values by entry
Numeric answer only, unit MFI assumed.

binder: H4H2480N (antibody, V domains shown) VH: QVQLQQWGAGLLKPSETLSLTCAVYGGSFSGYYWSWIRQTPGKGLEWIGEISHSGNNNYNPSLKSRVTMSKDTSKNQFSLKLSSVTAADTAVYYCARIQLWLRGNDYYGMDVWGQGITVTVSS VL: DIQMTQSPSSLSASVGDRVTITCRASQGIRNDLGWYQQKPGKAPKRLIYAASSLQGGVPSRFSGSGSGTEFTLTISSLQPEDFATYYCLQHNSYPWTFGQGTKVEIK
unit-tag: MFI
MFI: 62.9

Let us move to another entry and its MFI.
INPUT: Entry H4H2542P (antibody, V domains shown) VH: EVQLVESGGGLVQPGRSLRLSCAASGFTFDDYAMHWVRQGPGKGLEWVSGISWNGRTMDHADSVKGRFTISRDNAKNSLYLQMNSLRNDDTGVYFCAKEGIPVAGTYFHFYGMDVWGQGTTVTVSS VL: EIVMTQSPATLSVSPGERVTLSCRASQSIGNYLAWYQQKPGQAPRLLIYGTSTRATGIPARFSGSGSGTEFTLTFSSLQSEDFAVYYCQQYNHWPLTFGGGTKVEIK : reported MFI = ?
OUTPUT: 117
